- measurement.target: human somatostatin receptor subtype SSTR1 (human) (UniProt P30872)
- Sequence (P30872 whole entry): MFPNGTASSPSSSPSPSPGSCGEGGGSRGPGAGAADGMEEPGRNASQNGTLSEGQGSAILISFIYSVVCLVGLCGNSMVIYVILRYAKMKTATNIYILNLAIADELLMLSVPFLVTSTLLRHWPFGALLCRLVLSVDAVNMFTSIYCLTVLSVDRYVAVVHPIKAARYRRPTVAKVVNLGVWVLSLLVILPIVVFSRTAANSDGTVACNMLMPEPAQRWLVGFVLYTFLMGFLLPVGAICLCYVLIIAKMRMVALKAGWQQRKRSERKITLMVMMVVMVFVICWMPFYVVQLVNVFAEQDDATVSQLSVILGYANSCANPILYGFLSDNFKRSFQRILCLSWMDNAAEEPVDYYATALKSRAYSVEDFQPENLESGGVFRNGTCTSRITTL
- assay.text: FACS, transfected HEK-293 cells; normalised to Compound 1
*1 amine or outer side, *2 acyl side, *3 side chain or, on linkers, in order; H or OH if unused. Bridges are numbered along the chain shown (N, C = ends). Primed or numbered codes have the meaning given here. [ ]: non-standard residue; d: D form. N(2-mercaptoethyl)Gly = O=C(CN(CCS[*:3])[*:1])[*:2]; FITC′ = fluorescein isothiocyanate; GABA = NCCCC(=O)O
Measured Binding affinity relative to Compound 1 (% of Compound 1) of individual entries
Form: value (number only, do not type unit).

{FITC′-GABA}-[dF]CRFF[dW]KTF[N(2-mercaptoethyl)Gly]-NH2 (disulfide 2-10) [Compound 8] : 78
XCFWXXTFX (FITC-GABA-DPhe-Cys*-Phe-Trp-DTrp-HomoLys-Thr-Phe-GlyS2*-NH2 (* = S-S bond; HomoLys = homolysine; GlyS2 = N-thioethyl glycine; C-terminal amide)) [Compound 16] : 0
{FITC′-GABA}-[dF]RCY[dW]KTF[N(2-mercaptoethyl)Gly]-NH2 (disulfide 3-9) [Compound 6] : 0
XCFWXXTFX (FITC-GABA-DPhe-Cys*-Phe-Trp-DTrp-Orn-Thr-Phe-GlyS2*-NH2 (* = S-S bond; GlyS2 = N-thioethyl glycine; Orn = ornithine; C-terminal amide)) [Compound 3] : 120

In: Which Binding affinity relative to Compound 1 (% of Compound 1) is listed for {FITC′-GABA}-[dF]RCF[dW]KTF[N(2-mercaptoethyl)Gly]-NH2 (disulfide 3-9) [Compound 2] ?
Out: 167

In: // query Binding affinity relative to Compound 1 (% of Compound 1) value for entry {FITC′-GABA}-[dF]CYW[dW]KTF[N(2-mercaptoethyl)Gly]-NH2 (disulfide 2-9) [Compound 4]
Out: 100
